pKi by entry:
Test: Non-competitive inhibition of human alpha-glucosidase expressed in Saccharomyces cerevisiae using varying levels of p-nitophenyl-alpha-glucopyranoside as substrate pretreated with substrate for 15 mins followed by enzyme addition measured after 15 mins by Lineweaver-burk plot analysis
The meaning of pKi here: minus log10 of the concentration in molar units.

1) CC1(C)CCc2cc(CC3OC(=O)C(O)=C3c3ccc(O)cc3)ccc2O1 (stereo not given) : 6.37
2) COC(=O)[C@]1(Cc2ccc3c(c2)CCC(C)(C)O3)OC(=O)C(O)=C1c1ccc(O)cc1 : 5.68
3) CC1(C)CCc2cc(CC3=C(c4ccc(O)cc4)[C@@](O)(C(=O)O)OC3=O)ccc2O1 : 5.33
4) Cc1c(O)c(O)c(O)c(C=O)c1-c1cc2c(C=O)c(C)c(O)c(O)c2o1 : 5.14
5) COC(=O)[C@@]1(O)OC(=O)C(Cc2ccc3c(c2)CCC(C)(C)O3)=C1c1ccc(O)cc1 : 4.85
6) CCOC(=O)[C@@]1(O)OC(=O)C(Cc2ccc3c(c2)CCC(C)(C)O3)=C1c1ccc(O)cc1 : 4.72

Input line: Name the recorded pKi for `COc1cc(O)cc(C(=O)O)c1Oc1cc(C)cc(O)c1C(=O)O` .
Output line: 6.22

Input line: Name the recorded pKi for COC(=O)c1cc(O)cc(OC)c1Oc1c(Cl)c(C)c(Cl)c(O)c1C(=O)O [GEODIN HYDRATE] .
Output line: 5.26

Input line: Name the recorded pKi for `Cc1cc(O)c2c(c1)C(=O)c1cc(O)cc(O)c1C2=O` .
Output line: 6.10

Input line: Name the recorded pKi for COC(=O)c1cc(O)cc(OC)c1Oc1c(Cl)c(C)c(Cl)c(O)c1C(=O)OC [METYL DICHLOROASTERRATE] .
Output line: 5.55

----------
Experiment: Inhibition of human alpha-glucosidase expressed in Saccharomyces cerevisiae using p-nitophenyl-alpha-glucopyranoside as substrate pretreated with substrate for 15 mins followed by enzyme addition measured after 15 mins
pIC50 by entry:
The meaning of pIC50 here: minus log10 of the concentration in molar units.

Known pIC50 results, listed for orientation:
1) C[C@H]1O[C@H](O[C@H]2[C@H](O)[C@@H](O)[C@@H](O[C@H]3[C@H](O)[C@@H](O)C(O)O[C@@H]3CO)O[C@@H]2CO)[C@H](O)[C@@H](O)[C@@H]1N[C@H]1C=C(CO)[C@@H](O)[C@H](O)[C@H]1O (stereo partly drawn) : 4.00
2) COC(=O)[C@]1(Cc2ccc3c(c2)CCC(C)(C)O3)OC(=O)C(O)=C1c1ccc(O)cc1 : 4.43
3) OC[C@H]1NC[C@H](O)[C@@H](O)[C@@H]1O : 4.10

Input line: Name the recorded pIC50 for `COC(=O)[C@@]1(O)OC(=O)C(Cc2ccc3c(c2)CCC(C)(C)O3)=C1c1ccc(O)cc1` .
Output line: 4.24

Input line: Name the recorded pIC50 for COC(=O)c1cc(O)cc(OC)c1Oc1c(Cl)c(C)c(Cl)c(O)c1C(=O)O [GEODIN HYDRATE] .
Output line: 4.26

Input line: Name the recorded pIC50 for `Cc1cc(O)c2c(c1)C(=O)c1cc(O)cc(O)c1C2=O` .
Output line: 4.72
